target.system: human ether-à-go-go-related gene (hERG) potassium channel (human, UniProt Q12809);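 note: peak tail current of the secondary pulse compared with the same well before compound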
Sequence (Q12809 whole entry, looked up): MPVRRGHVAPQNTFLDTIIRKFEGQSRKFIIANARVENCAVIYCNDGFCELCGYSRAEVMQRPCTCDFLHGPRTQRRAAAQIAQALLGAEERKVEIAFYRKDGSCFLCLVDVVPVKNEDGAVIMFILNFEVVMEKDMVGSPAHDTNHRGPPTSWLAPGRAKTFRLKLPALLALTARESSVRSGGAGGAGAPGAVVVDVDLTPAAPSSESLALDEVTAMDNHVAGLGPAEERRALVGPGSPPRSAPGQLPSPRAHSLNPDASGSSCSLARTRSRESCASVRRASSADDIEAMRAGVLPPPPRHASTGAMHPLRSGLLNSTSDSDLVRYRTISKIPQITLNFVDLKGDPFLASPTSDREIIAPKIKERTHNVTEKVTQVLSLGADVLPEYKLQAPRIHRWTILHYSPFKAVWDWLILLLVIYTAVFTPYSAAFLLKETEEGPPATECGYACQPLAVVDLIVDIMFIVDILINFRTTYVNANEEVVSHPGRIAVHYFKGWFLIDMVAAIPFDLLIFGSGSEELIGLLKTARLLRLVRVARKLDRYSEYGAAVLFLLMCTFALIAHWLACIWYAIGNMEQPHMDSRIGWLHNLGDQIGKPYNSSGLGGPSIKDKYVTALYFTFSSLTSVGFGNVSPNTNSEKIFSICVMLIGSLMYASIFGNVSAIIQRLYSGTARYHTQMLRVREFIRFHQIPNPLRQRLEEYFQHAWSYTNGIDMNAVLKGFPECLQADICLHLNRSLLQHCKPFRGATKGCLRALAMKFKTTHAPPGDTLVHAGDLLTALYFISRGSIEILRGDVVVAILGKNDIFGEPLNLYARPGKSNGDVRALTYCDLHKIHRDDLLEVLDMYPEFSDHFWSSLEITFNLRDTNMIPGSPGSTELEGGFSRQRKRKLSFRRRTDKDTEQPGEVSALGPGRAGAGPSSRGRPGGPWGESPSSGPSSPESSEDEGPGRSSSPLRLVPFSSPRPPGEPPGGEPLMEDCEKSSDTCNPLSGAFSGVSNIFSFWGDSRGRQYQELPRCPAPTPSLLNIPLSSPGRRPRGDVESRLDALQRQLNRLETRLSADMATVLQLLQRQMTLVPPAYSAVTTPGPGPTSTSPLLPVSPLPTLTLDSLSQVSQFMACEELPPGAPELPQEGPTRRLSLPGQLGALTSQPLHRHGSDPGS
test.method.notes: primary screen, population patch clamp on CHO cells stably expressing hERG; higher = less effect of the substance
Screen size: about 310,000 compounds; about 14,000 (4.5%) showed an effect of 50% or more. Effects have a minus sign here. This is one part of a sample in which strong results are shown more often than they occur.
reported.endpoint: hERG current change (%, negative = inhibition) at 10uM (%)
Answers are plain numbers, in %.

Some molecules with known hERG current change (%, negative = inhibition) at 10uM results, for comparison:
smiles.notation	target.system	assay.result
O=C(NCCC(=O)N1CCN(c2ccccc2O)CC1)c1ccc(Br)cc1	human ether-à-go-go-related gene (hERG) potassium channel (human, UniProt Q12809)	-13.3
CN(CC(=O)NCCCc1ccccc1)S(=O)(=O)c1ccc(Br)cc1	human ether-à-go-go-related gene (hERG) potassium channel (human, UniProt Q12809)	-7.88
O=C(CCC(=O)N1CCN(c2ccc(O)cc2)CC1)c1cccs1	human ether-à-go-go-related gene (hERG) potassium channel (human, UniProt Q12809)	-3.11
O=C(c1cccs1)N1CCN(c2cccc(Cl)c2)CC1	human ether-à-go-go-related gene (hERG) potassium channel (human, UniProt Q12809)	-16.5
CCOC(=O)[C@H]1[C@H]2COc3ccc(Cl)cc3[C@@H]2N2C(=O)c3cc(Cl)ccc3NC(=O)[C@@]12C	human ether-à-go-go-related gene (hERG) potassium channel (human, UniProt Q12809)	3.59
COc1ccccc1N1CCN(C(=O)CCn2c(=O)[nH]c3ccsc3c2=O)CC1	human ether-à-go-go-related gene (hERG) potassium channel (human, UniProt Q12809)	8.71
Cc1ccc(C)c(NS(=O)(=O)c2cc3c4c(c2)CC(=O)N4CCC3)c1	human ether-à-go-go-related gene (hERG) potassium channel (human, UniProt Q12809)	4.86
COc1ccc2nc(C)cc(Nc3ccc(C(=O)O)cc3)c2c1	human ether-à-go-go-related gene (hERG) potassium channel (human, UniProt Q12809)	39.5
O=C(NCCC(=O)N1CCN(c2cccc(Cl)c2)CC1)c1ccc(Br)cc1	human ether-à-go-go-related gene (hERG) potassium channel (human, UniProt Q12809)	-55

Here is another molecule to look at.
# hERG current change (%, negative = inhibition) at 10uM of COc1ccc2nc(C)cc(Nc3ccc(C)cc3)c2c1.Cl = -52.8

====

target.system: human ether-à-go-go-related gene (hERG) potassium channel (human, UniProt Q12809);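 note: peak tail current of the secondary pulse compared with the same well before compound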
test.method.notes: primary screen, population patch clamp on CHO cells stably expressing hERG; higher = less effect of the substance
Among all 310,000 compounds or so, about 14,000 (4.5%) showed an effect of 50% or more. Effects have a minus sign here. The sample as a whole holds a higher share of strong results than the screen did.
For each record, write down the corresponding hERG current change (%, negative = inhibition) at 10uM.
Field: value (include unit after the number)

compound	target.system	assay.result
O=C(Nc1cccc(Cl)c1)c1ccc(NCC2CCCO2)c([N+](=O)[O-])c1 (centres unmarked)	human ether-à-go-go-related gene (hERG) potassium channel (human, UniProt Q12809)	-2.53%
Cn1c(SCC(=O)O)nnc1-c1cccc(NC(=O)c2cccc3ccccc23)c1	human ether-à-go-go-related gene (hERG) potassium channel (human, UniProt Q12809)	7.15%

State recorded hERG current change (%, negative = inhibition) at 10uM for all listed compounds.
1. CCN(CC)CCNC(=O)c1cc2c(-c3ccc(Cl)cc3)nn(C)c2s1
2. COC(=O)Nc1ccc(S(=O)(=O)NCCCCCC(=O)O)cc1

["-69.6%", "-1.56%"]

// each listed compound needs a value for hERG current change (%, negative = inhibition) at 10uM
1. Cc1ccc2nc(N(CCN(C)C)C(=O)/C=C/c3cccs3)sc2c1.Cl
2. CCCCN(CC)CCCNC(=O)c1cc2c(-c3ccc(OC)c(OC)c3)nn(C)c2s1
3. Cc1cc(C(C)(C)C)cc(C)c1Cn1c2[n+](c3ccc(C(F)(F)F)cc31)CCCCC2.[Cl-]
4. C=CCOc1ccc(CN(C)CC(O)COc2cccc3ccccc23)cc1 (centres unmarked)
5. O=C(CCN1CCN(C/C=C/c2ccccc2)CC1)Nc1ccc(Cl)cc1
6. O=C(COc1ccc(Cl)cc1Cl)N1CCN(c2ccccn2)CC1
7. O=C(CCN1CCN(c2ccccc2)CC1)Nc1ccc(Cl)cc1

-40.3%
-7.25%
-55.4%
-23.2%
-78.2%
-33.3%
-17.9%

Quick one: give me hERG current change (%, negative = inhibition) at 10uM for each item below, same order please.
1. Cc1cccc(NC(=O)CCN2CCN(C/C=C/c3ccccc3)CC2)c1.Cl
2. Cc1ccc(NC(=O)COC(=O)CCC(=O)c2cccs2)cc1
3. COc1cccc(CNCC(O)COc2ccc(C(=O)c3ccccc3)cc2)c1 (centres unmarked)

1: -74%; 2: -6.94%; 3: -34.7%

Give hERG current change (%, negative = inhibition) at 10uM for each of the items listed below.
1. COc1ccc(CNC(=O)Cc2cccs2)cc1
2. Cc1ccc(-c2nnc(N3CC(C)OC(C)C3)c3ccccc23)cc1 (centres unmarked)
3. CCC(=O)N1CCN(C(=O)c2ccccc2)CC1

1: 15%; 2: -20.6%; 3: 1.82%

====

target.system: human ether-à-go-go-related gene (hERG) potassium channel (human);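 note: peak tail current of the secondary pulse compared with the same well before compound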
test.method.notes: primary screen, population patch clamp on CHO cells stably expressing hERG; higher = less effect of the substance
Hit rate of the full screen: of about 310,000 compounds, about 14,000 (4.5%) showed an effect of 50% or more. Effects have a minus sign here. The full list was thinned out, with strong results kept by preference.
reported.endpoint: hERG current change (%, negative = inhibition) at 10uM

compound	assay.result
O=C(NCCN1CCOCC1)c1cc(Sc2cccc(Cl)c2)nc2ccccc12	-77.2%
C#CCNC(=O)[C@H](Cc1ccc(C(=O)c2ccccc2)cc1)NC(=O)OC(C)(C)C	19.5%
O=C(NCCN1CCOCC1)c1cc(Sc2ccc(F)cc2F)nc2ccccc12	-42.8%
Cc1cc(=O)[nH]c(Nc2ccc(Cl)cc2)n1	15%
COc1ccc(OCC(=O)N2CCN(Cc3ccc(SC)cc3)CC2)cc1.O=C(O)C(=O)O	-50.9%

Below are some compounds; for each one, tell me its hERG current change (%, negative = inhibition) at 10uM.
1. O=C(NCCN1CCOCC1)c1cc(-c2ccccc2Cl)nc2ccccc12
2. COc1ccc(OCC(=O)N2CCN(C(=O)c3cccc(F)c3)CC2)cc1
3. Cc1cccc(OCC(=O)N2CCN(C(=O)Cc3ccccc3)CC2)c1

["-15%", "-7.41%", "-13.2%"]

Dear colleague, could you send me hERG current change (%, negative = inhibition) at 10uM for each of the items below? Thanks.
1. CSc1ccc(CN2CCN(C(=O)CC(C)C)CC2)cc1
2. CCc1ccc(Nc2cc(C(=O)NCCCN3CCOCC3)c3ccccc3n2)cc1
3. Cc1nc(N)nc(Nc2ccc(Cl)cc2)c1Br

1. 9.42%
2. -35.5%
3. -7.99%

Hey, can you go through the list below and give me hERG current change (%, negative = inhibition) at 10uM for every item?
1. CCN1CCN(c2ccc(NC(=O)COc3ccccc3Cl)cc2)CC1
2. Nc1c(-c2cccc(Cl)c2)cnn1-c1ccccc1
3. O=C(NCCCN1CCOCC1)c1cnn2c(-c3ccccc3)cc(-c3ccccc3)nc12
4. CCN1CCN(C(C)C(=O)Nc2c(C)n(C)n(-c3ccccc3)c2=O)CC1.O=C(O)C(=O)O (centres unmarked)
5. CCN1CCN(C(=O)c2ccc(CNS(=O)(=O)c3cccc(OC)c3)cc2)CC1
6. O=C(NCCN1CCOCC1)c1cnn2c(-c3ccccc3)cc(-c3ccccc3)nc12
7. Nc1c(-c2ccccc2)cnn1-c1cccc(Cl)c1

1: -40.7%; 2: -60.3%; 3: -41.3%; 4: 18.6%; 5: 40.7%; 6: -72.5%; 7: -12.3%

List hERG current change (%, negative = inhibition) at 10uM for every entry below, keeping the order given.
1. Nc1c(-c2ccccc2)cnn1-c1ccccc1
2. O=C(COc1ccc(Cl)cc1)N1CCN(C(=O)c2cccc(F)c2)CC1

1: 12%; 2: -58.5%

====

target.system: human ether-à-go-go-related gene (hERG) potassium channel (human, UniProt Q12809);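 note: peak tail current of the secondary pulse compared with the same well before compound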
test.method.notes: primary screen, population patch clamp on CHO cells stably expressing hERG; higher = less effect of the substance
The campaign covered roughly 310,000 compounds. About 14,000 (4.5%) showed an effect of 50% or more. The effect is printed as a negative number. The entries come from a sample that favours strong results as a whole.
I'd be grateful if you could share measured hERG current change (%, negative = inhibition) at 10uM for these entries.
One number for each entry, in %.

Consider the worked cases shown below.
compound	assay.result
N#Cc1nc(-c2cccs2)oc1NCc1ccco1	-5.22
COc1ccccc1CCNC(=O)c1c(C)nn(CC(C)C)c1Cl	-4.9
C/C(=N\NC(=O)c1ccc(NS(=O)(=O)c2cccs2)cc1)c1ccc(O)cc1O	-0.956
Cc1ncc(CN2CCC(CO)(CCc3ccccc3)CC2)s1	-60.4
Cn1ncc2c(Nc3ccc(O)cc3)nc(Cl)nc21	5.53

I have 3 compounds here; please give me hERG current change (%, negative = inhibition) at 10uM for each one.
1. C=CCNC(=O)C12CC3(C)CC(C)(CC(C)(C3)C1)C2
2. Cc1ncc(CN2CCC(CO)(CCOc3ccccc3)CC2)s1
3. Cc1ncc(CN2CCC(CO)(Cc3ccccc3)CC2)s1

1: -11.8; 2: -70.1; 3: -7

For every item in the list below, what is its measured hERG current change (%, negative = inhibition) at 10uM?
1. O=C(Nc1ccc(Cl)cc1)c1cccc(S(=O)(=O)Nc2ccccn2)c1
2. CCCC(OC(=O)CC1Sc2ccccc2NC1=O)C(=O)NCc1ccco1 (stereo not shown)

-6.23
-13.8
